molecular target: 5-HT4 (Homo sapiens); experiment: Radioligand binding selectivity, 5-HT4; conditions: read-out: Ki 5-HT4
Sequence (Q13639 whole entry, species assumed): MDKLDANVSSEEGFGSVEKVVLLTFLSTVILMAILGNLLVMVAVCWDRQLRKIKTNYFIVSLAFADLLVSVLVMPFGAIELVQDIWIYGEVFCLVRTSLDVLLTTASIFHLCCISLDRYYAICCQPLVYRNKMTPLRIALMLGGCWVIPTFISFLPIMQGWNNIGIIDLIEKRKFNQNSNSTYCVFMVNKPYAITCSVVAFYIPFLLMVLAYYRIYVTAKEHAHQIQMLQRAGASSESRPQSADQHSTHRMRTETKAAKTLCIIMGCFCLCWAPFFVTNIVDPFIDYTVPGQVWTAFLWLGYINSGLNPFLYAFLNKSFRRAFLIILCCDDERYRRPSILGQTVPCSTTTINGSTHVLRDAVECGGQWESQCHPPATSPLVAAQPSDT
pKi: −log10 of the molar value.
measurement_name: pKi

Report pKi for Cc1nn(-c2ncccc2CO)cc1CN1CCC2(CC1)OCC(F)(F)c1cc(Cl)sc12 please. < 5.39

* * *

assay: Rat hepatic microsomal glutathione trapping assay; assay type: in vitro ADME; details: hepatic microsomal homogenate, glutathione as nucleophile
measurement_name: Glutathione conjugate formation

Cc1nn(-c2c(F)cccc2C(N)=O)cc1CN1CCC2(CC1)OCCc1cc(F)sc12.O=C(O)C(O)C(O)C(=O)O [reference compound] : Yes
COCc1cccnc1-n1cc(CN2CCC3(CC2)OCCc2cc(Cl)sc23)c(C)n1.O=C(O)C(O)C(O)C(=O)O : Yes
Cc1nn(-c2c(F)cccc2C(N)=O)cc1CN1CCC2(CC1)OCCc1c2sc(F)c1F.O=C(O)C(O)C(O)C(=O)O [reference compound] : Yes
COCc1cccnc1-n1cc(CN2CCC3(CC2)OCC(F)(F)c2cc(F)sc23)c(C)n1.O=C(O)C(O)C(O)C(=O)O : No

Data provenance: patent US8232289B2
